# method: Cell Viability - LYMP2-026 (AID 989);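 further: cells exposed to compound for 24 h at 37 °C; nearly all actives have a fitted effect of over 50% in size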
# protocolConditions: LYMP2-026 lymphoblastoid cell viability, qHTS; series mostly up to 92.2 µM
Inconclusive results are not listed. Calls of active or inactive are those of the source. The call rests on the fitted dose curve; in most records, active means well fitted cell-killing curve with a large enough effect; inconclusive means small, poorly fitted or top-dose-only effect; inactive means flat fitted curve, though single readings scatter.
Return exactly one item of YES = active, NO = inactive

Problem: Could you kindly confirm the outcome this assay logged for `C#C[C@]1(O)CC[C@H]2[C@@H]3CCc4cc(O)ccc4[C@H]3CC[C@@]21C` ?
Solution: NO

Problem: Could you kindly confirm the outcome this assay logged for `CN1CCC[C@H]1c1cccnc1` ?
Solution: NO

Problem: Could you kindly confirm the outcome this assay logged for CN(C)CCC(c1ccc(Cl)cc1)c1ccccn1 (configuration not stated) ?
Solution: NO

Problem: Could you kindly confirm the outcome this assay logged for `CCCOC(=O)c1ccc(O)cc1` ?
Solution: NO

Problem: Could you kindly confirm the outcome this assay logged for `CC1(C)S[C@@H]2[C@H](NC(=O)[C@H](N)c3ccccc3)C(=O)N2[C@H]1C(=O)O` ?
Solution: NO

Problem: Could you kindly confirm the outcome this assay logged for `S=c1[nH]c2ccccc2s1` ?
Solution: NO

Problem: Could you kindly confirm the outcome this assay logged for `Nc1ccc(O)c([N+](=O)[O-])c1` ?
Solution: NO

Problem: Could you kindly confirm the outcome this assay logged for `CN(C)c1ccc(N=NS(=O)(=O)O)cc1` ?
Solution: NO

Problem: Could you kindly confirm the outcome this assay logged for `O=C(O)c1cc(O)c(O)c(O)c1` ?
Solution: NO

Problem: Could you kindly confirm the outcome this assay logged for `Nc1nc2ccc([N+](=O)[O-])cc2s1` ?
Solution: NO

Problem: Could you kindly confirm the outcome this assay logged for `O=C(O)/C=C\C(=O)O` ?
Solution: NO

Problem: Could you kindly confirm the outcome this assay logged for `CN(C)c1ccc(C(=C2C=CC(=[N+](C)C)C=C2)c2ccccc2)cc1` ?
Solution: YES
